study.system: T1, AFP158/HLA-A*02:01 complex (human)
T1 construct: biotinylated on the BSP by BirA for ELISA and panning; also called biotinylated AFP158/HLA-A*02:01 complex; Bio-AFP158
assay.name: SPR, antibody captured via mIgG2a-Fc, complex as analyte
quantity: koff (s⁻¹)
Please give a number only; it is taken to be in s⁻¹.

Request: For the binder AS167830 sdAb-mIgG2aFc (Fc fusion, not shown: a dimerising Fc or GST, i647-labelled for flow cytometry) QVKLVESGGGSVQAGGSLRLSCAASRSSEYMNRRFCMGWFRQASGKEREGVAVVYIGGGRTYYADSVKGRFTISQDNAKNTLYLQMNNLKPEDTAMYYCTADVDPYESSWSRDLGYWGQGTQVTVSS , give its reported koff.
Result: 0.07

Request: For the binder AS179723 scFv-mIgG2aFc (Fc fusion, not shown: a dimerising Fc or GST, Camel scFv; i647-labelled for flow cytometry) QAGLTQPPSMSGSPRQSVTISCTGSSNNIGGNYVNWYQHLPGTAPKLLIYDNKNRPSGVPEQISGSKSGSSASLTITGLQAEDEGDYYCASWDDSLSAVVFGGGTHLTVLGGGGSGGGGSGGGGSEVQLVESGGGLVQPGGSLRLSCAASGFTFLNYAMSWVRQAPGKGLEWVSSNSGAGSTYYSDSVKGRFTISRDYAKNVVYLQLNSLKTEDTGMYYCAKGTNVGSWSSLHYWGQGTQVTVSS , give its reported koff.
Result: 0.0042

Request: For the binder AS190259 scFv-mIgG2aFc (Fc fusion, not shown: a dimerising Fc or GST, Camel scFv; i647-labelled for flow cytometry) QSVVTQPSAVSVSLEETATITCQGGGYYVNWYQQKPGQAPVLVIYLNTNRPSGIPERFSASKSGGTATLTINGAQAEDEAAYYCQSADSSGNSAVFGGGTHLTVLGGGGSGGGGSGGGGSQVQLVQSGGGLVQPGGSLRLSCAASGFTFSSYAMSWVRQAPGKGLEWVSAINSGGGSTYYADSVKGRFTISRDNAKNTLYLQLNSLKTEDTAMYYCAKAASGYGGSWWGDATLDAWGQGTLVTVSS , give its reported koff.
Result: 0.14

Request: For the binder AS170036 scFv-mIgG2aFc (Fc fusion, not shown: a dimerising Fc or GST, Camel scFv) QLVLTQPSSVSGTPGQTVTISCAGTSSDVGSENYVSWYRQLPGTAPKLLIYQVNKRASGIADRFSGSKSGNTASMTISGLQSADEADYYCASYRSSDHNIVFGGGTHLTVLGGGGSGGGGSGGGGSAVQLVESGGGLVQPGGSLRLSCTASGFTFSSYAMSWVRQAPGKGLEWVSTINSGTGSPYYADSVKGRFTISRDNAKNTLYLQLNSLKTEDTAMYYCAKNFFDGSWFLGPPAMDYWGKGTLVTISS , give its reported koff.
Result: 0.06

Request: For the binder AS167821 sdAb-mIgG2aFc (Fc fusion, not shown: a dimerising Fc or GST, i647-labelled for flow cytometry) QVRLVESGGGSVQAGGSLRLSCAASGRTYSTYCMGWFRQAPGKEREGVATIYIGSGRTYYVDSVKGRFTISQDNAKNTLYLQMNNLKPEDTAMYYCTADVDPYESSWSRGLGYWGQGTQVTVSS , give its reported koff.
Result: 0.039

These data points were gathered from patent US20240279318A1.
